Protein target, amino acids: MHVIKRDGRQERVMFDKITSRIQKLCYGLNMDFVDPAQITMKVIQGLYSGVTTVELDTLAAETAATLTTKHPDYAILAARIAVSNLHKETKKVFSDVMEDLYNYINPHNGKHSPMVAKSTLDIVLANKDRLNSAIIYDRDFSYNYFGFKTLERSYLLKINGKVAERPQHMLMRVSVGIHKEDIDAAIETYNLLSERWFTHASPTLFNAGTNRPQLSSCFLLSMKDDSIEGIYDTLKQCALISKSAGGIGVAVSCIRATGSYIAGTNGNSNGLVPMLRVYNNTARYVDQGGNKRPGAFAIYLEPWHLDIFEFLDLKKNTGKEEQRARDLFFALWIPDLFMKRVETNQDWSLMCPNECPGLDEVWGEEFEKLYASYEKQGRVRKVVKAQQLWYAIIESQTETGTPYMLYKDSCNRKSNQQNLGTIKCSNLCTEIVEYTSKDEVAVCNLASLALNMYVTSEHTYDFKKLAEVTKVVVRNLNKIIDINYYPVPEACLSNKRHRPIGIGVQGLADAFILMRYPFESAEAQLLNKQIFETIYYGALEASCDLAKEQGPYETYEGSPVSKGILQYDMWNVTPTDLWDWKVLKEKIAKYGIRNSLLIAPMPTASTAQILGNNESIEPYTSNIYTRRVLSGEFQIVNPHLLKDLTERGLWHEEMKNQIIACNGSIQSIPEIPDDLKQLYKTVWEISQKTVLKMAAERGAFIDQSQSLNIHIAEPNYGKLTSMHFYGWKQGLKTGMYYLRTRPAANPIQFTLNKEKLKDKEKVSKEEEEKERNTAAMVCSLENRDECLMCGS
pIC50: −log10 of the molar value.
MEASURED_ATTRIBUTE: pIC50

Some solved cases for reference:
Cc1ccc(F)c([C@@H](C)[C@H](NS(=O)(=O)N2CCC(C)(C)CC2)c2n[nH]c(=O)o2)c1C; 6.00 to 7.00
Cc1ccc(F)c([C@@H](C)[C@H](NS(=O)(=O)N2CCc3ccccc3C2)c2n[nH]c(=O)o2)c1C; 6.00 to 7.00
CCCCC1CCN(S(=O)(=O)N[C@H](c2n[nH]c(=O)o2)[C@H](C)c2c(F)ccc(C)c2C)CC1; 5.00 to 6.00
Cc1ccc(F)c([C@H](C)[C@H](NS(=O)(=O)N2CCC(C)(C#N)CC2)c2n[nH]c(=O)o2)c1C; 5.00 to 6.00
Cc1ccc(F)c([C@H](C)[C@H](NS(=O)(=O)N2CCC(C(C)C)CC2)c2n[nH]c(=O)o2)c1C; 5.00 to 6.00

The molecule listed as Cc1ccc(F)c(C(C)[C@H](NS(=O)(=O)N2CCC(CN(C)C)CC2)c2n[nH]c(=O)o2)c1C (some centres unmarked) shows pIC50 equal to 4.00 to 5.00

The molecule listed as Cc1ccc(F)c([C@@H](C)[C@H](NS(=O)(=O)N2CCC(CCl)CC2)c2n[nH]c(=O)o2)c1C has a reported pIC50 of 6.00 to 7.00

Kindly note the recorded pIC50 for Cc1ccc(F)c([C@@H](C)[C@H](NS(=O)(=O)N2CCC(c3c[nH]c4ccccc34)CC2)c2n[nH]c(=O)o2)c1C , which is 5.00 to 6.00

The measured values listed here are drawn from patent US20240425490A1.
